Target: UniProt:P42574
Sequence (P42574 29-175 limits assumed): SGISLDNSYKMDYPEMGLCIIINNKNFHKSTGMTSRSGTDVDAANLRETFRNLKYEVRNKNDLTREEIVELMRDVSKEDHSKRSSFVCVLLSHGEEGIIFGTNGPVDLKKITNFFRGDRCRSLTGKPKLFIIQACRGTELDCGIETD
Sequence (P42574 176-277 limits assumed): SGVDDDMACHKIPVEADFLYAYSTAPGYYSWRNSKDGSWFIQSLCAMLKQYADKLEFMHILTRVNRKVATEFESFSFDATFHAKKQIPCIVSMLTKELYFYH
pIC50: −log10 of the molar value.
valueType: pIC50

                                 smilesdata        testedon  numericvalue
0  COc1ccc(N2C(=O)/C(=C/c3ccco3)C(=O)NC2=S)cc1  UniProt:P42574          4.97
